- measuredOn: T1, human calcitonin receptor (human, UniProt P30988 25-474)
- T1 sequence (looked up): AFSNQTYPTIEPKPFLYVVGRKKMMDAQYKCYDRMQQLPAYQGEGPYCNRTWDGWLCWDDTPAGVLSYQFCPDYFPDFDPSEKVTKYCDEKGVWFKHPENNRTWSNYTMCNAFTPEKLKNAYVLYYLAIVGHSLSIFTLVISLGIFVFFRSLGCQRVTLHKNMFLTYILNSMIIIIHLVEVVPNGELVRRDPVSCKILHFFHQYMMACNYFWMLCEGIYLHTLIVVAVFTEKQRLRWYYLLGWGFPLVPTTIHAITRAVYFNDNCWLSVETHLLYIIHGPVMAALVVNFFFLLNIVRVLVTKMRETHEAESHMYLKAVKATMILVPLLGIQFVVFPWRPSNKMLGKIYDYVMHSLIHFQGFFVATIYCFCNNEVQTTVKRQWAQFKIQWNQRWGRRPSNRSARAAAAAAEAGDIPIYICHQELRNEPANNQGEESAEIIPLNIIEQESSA
- testProtocol: cell-based or functional assay
Numbered stars: 1 amine (or outer) side, 2 acyl side, 3 side chain; on linkers, the order of the positions; unused ones are H or OH. Side chains are listed from the residue outwards. Ends that are not written are not given here. * marks the point of attachment. C20 diacid = O=C(O)CCCCCCCCCCCCCCCCCCC(=O)*; C18 diacid = O=C(O)CCCCCCCCCCCCCCCCC(=O)*; C16 diacid = O=C(O)CCCCCCCCCCCCCCC(=O)*; γGlu = O=C(O)[C@H](CCC(=O)[*:2])N[*:1]; C14 diacid = O=C(O)CCCCCCCCCCCCC(=O)*; Palmitoyl = CCCCCCCCCCCCCCCC(=O)*; AEEA = NCCOCCOCC(=O)O
Could you label it yes if measured hCTR funct. EC50 (pM) is 10 pM or higher, and no otherwise?

binder	answerLabel
{C16 diacid}-EASELSTAALGRLSAELHELATLPRTETGPESP-NH2 [[N-terminal(C16 diacid)]mimylin]	no
{C20 diacid-γGlu}-ASELSTAALGRLSAELHELATYPRTETGSGSY-OH [[N-terminal(C20 diacid-gGlu), des1, 23Y, 30S, 31G, 33Y, C-terminal(-)]mimylin]	yes
{C18 diacid-γGlu}-ASEVSTAVLGRLSAELHELATLPRTETGSGSP-NH2 [[N-terminal(C18 diacid-gGlu), des1, 5V, 9V, 30S, 31G]mimylin]	yes
ASEVSTAVLGRLSAELHELATLPRTETGSGSP-NH2 [[des1, 5V, 9V, 30S, 31G]mimylin]	no
ASELSTAALGHLSAELHELATLPRTETGSGSP-NH2 [[des1, 12H, 30S, 31G]mimylin]	no
Palmitoyl-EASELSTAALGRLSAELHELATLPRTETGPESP-NH2 [[N-terminal(C16)]mimylin]	yes
{C16 diacid-γGlu}-ASELSTAALGRLSAELHELATLPRTETGSGSP-NH2 [[N-terminal(C16 diacid-gGlu), des1, 30S, 31G]mimylin]	yes
ASELTTAVLGRLEAELHELTTLPRTETGTGTP-NH2 [[des1, 6T, 9V, 14E, 21T, 30T, 31G, 32T]mimylin]	yes
Ac-ASK([γGlu-C20 diacid])LSTAALGRLSAELHELATLPRTETGSGSP-NH2 [[N-terminal(acetyl), des1, 4K(C20 diacid-gGlu), 30S, 31G]mimylin]	yes
{C14 diacid-γGlu}-ASELSTAALGRLSAELHELATLPRTETGPESP-NH2 [[N-terminal(C14 diacid-gGlu), des1]mimylin]	no
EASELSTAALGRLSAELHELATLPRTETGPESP-NH2 [mimylin]	no
{C20 diacid-γGlu-AEEA-AEEA}-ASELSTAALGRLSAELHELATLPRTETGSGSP-NH2 [[N-terminal(C20 diacid-gGlu-2xOEG), des1, 30S, 31G]mimylin]	yes
{C14 diacid}-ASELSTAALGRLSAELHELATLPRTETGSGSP-NH2 [[N-terminal(C14 diacid), des1, 30S, 31G]mimylin]	no
{C18 diacid}-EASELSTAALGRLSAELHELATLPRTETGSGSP-NH2 [[N-terminal(C18 diacid), 30S, 31G]mimylin]	no
{C20 diacid-γGlu-AEEA-AEEA-AEEA-AEEA}-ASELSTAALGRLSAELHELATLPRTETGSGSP-NH2 [[N-terminal(C20 diacid-gGlu-4xOEG), des1, 30S, 31G]mimylin]	yes
{C20 diacid-γGlu}-ASGLSTATLGRLSQELHELQTYPRTETGSGTY-NH2 [[N-terminal(C20 diacid-gGlu), des1, 4G, 9T, 15Q, 21Q, 23Y, 30S, 31G, 32T, 33Y]mimylin]	yes
ASELTTAVLGRLSAELHELATLPRTETGTGTP-NH2 [[des1, 6T, 9V, 30T, 31G, 32T]mimylin]	no
ASGLSTATLGRLSQELHELQTYPRTETGSGTY (ends and bridges not checked) [[des1, 4G, 9T, 15Q, 21Q, 23Y, 30S, 31G, 32T, 33Y]mimylin]	no
{C18 diacid-γGlu}-ASELTTAVLGRLSAELHELATLPRTETGTGTP-NH2 [[N-terminal(C18 diacid-gGlu), des1, 6T, 9V, 30T, 31G, 32T]mimylin]	yes
{C14 diacid-γGlu-γGlu-AEEA-AEEA-AEEA-AEEA}-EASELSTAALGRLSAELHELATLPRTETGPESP-NH2 [[N-terminal(C14 diacid-2xgGlu-4xOEG)]mimylin]	no
{C18 diacid-γGlu}-ASELTTAVLGRLSAELHELATLPRTETGSGTP-NH2 [[N-terminal(C18 diacid-gGlu), des1, 6T, 9V, 30S, 31G, 32T]mimylin]	yes

// provenance: patent US20160272683A1
